// provenance: ChEMBL document CHEMBL4825683

Measurement description: Cytotoxicity against human MSC-NEU cells assessed as reduction in cell viability measured after 48 hrs by MTT assay
Assay type: cell-based
Assay setup: read-out: LC50
Measured parameter: CC50 at 48 h (µM)
Provide only the numeric value, understood in µM.

Please review the following examples before continuing.
# Smiles, Measured parameter, Obs value
rows = [
    ("O=c1[nH]c2ccccc2nc1-c1ccc(-c2ccccc2)[nH]1", "CC50 at 48 h", 494),
    ("Clc1nccc(-c2c[nH]c3ccc(Br)cc23)n1", "CC50 at 48 h", 316),
]

Could you tell me which CC50 at 48 h is on file for Brc1ccc2[nH]cc(-c3ncnc4ccccc34)c2c1 ?
279
